src = paper PMC9320560

Biological target: recombinant hNAPRT (Homo sapiens)
Construct: His-tag (C)
Sequence (Q6XQN6 whole entry): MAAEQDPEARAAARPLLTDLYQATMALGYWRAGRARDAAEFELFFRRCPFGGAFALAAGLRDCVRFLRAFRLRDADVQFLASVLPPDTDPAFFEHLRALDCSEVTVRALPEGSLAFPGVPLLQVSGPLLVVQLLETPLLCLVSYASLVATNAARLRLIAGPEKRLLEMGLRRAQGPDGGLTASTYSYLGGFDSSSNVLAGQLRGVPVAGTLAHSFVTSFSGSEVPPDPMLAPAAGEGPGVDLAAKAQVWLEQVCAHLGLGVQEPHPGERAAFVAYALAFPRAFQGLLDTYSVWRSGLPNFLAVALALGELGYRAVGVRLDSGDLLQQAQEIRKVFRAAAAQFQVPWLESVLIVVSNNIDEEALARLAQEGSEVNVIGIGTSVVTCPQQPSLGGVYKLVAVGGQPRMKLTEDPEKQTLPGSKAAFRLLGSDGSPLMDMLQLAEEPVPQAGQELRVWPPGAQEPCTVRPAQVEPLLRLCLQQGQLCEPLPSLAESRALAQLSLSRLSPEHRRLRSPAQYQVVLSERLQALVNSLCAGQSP
Assay: hNAPRT inhibition assay (HPLC of NA and NAMN)
Settings: 100 µM nicotinic acid, 200 µM PRPP, 45 min at 37 °C; formation of NAMN
Description: hNAPRT was expressed in E. coli with an N-terminal His-tag and purified as described above. […] Blank mixtures without compounds but with equal amounts of DMSO were set in parallel and their rates fixed as 100% activity. […] Following centrifugation of the reaction mix, the supernatant was analyzed by HPLC by injection into a reverse-phase column (XTerra MS C18 Column, 125Å, 5 μm, 4.6 × 150 mm, Waters). […]
Measured pIC50 accompanies every entry in the list below.
Convention used: pIC50 is expressed as -log10 of the molar concentration.

Solved entries (count: 3):
| molecule | study system | pIC50 |
| --- | --- | --- |
| O=C(Cn1c(=O)sc2ccccc21)Nc1cccc(C(=O)O)c1 | recombinant hNAPRT (Homo sapiens) | 3.63 |
| CC(C)(C)C(=O)OCCCn1cc(CCCN2CC(O)C(O)C2Cn2cc(-c3ccccc3)nn2)nn1 (stereo not shown) | recombinant hNAPRT (Homo sapiens) | 3.62 |
| CC(Oc1ccccc1Cl)C(=O)Nc1cccc(C(=O)O)c1 (stereo not shown) | recombinant hNAPRT (Homo sapiens) | 3.58 |

Input line: Tell me the measured pIC50 of NCc1cc2c(cc1Cl)OCO2 , please.
Output line: 3.80
